- measurement.protocol: Satellite terminal tissue sampling after i.v. dosing
- Format: in vivo
- particulars: CD-1, mouse, lung, iv, 1 mg kg^−1; 4.0 h post i.v. dosing; n = 3 mice; read-out: Concentration of SSA in lung
attribute.measured: concentration at 4 h
Answer with the number, then the unit.

Give me measured concentration at 4 h, please, for this compound: "O=C(NCS(=O)(=O)O)Nc1ccc(C(F)(F)F)cc1"
18 nM

---

- measurement.protocol: Mouse plasma protein binding (rapid equilibrium dialysis) with plasma stability
- Assay type: in vitro ADME
- particulars: mouse, mouse plasma, % SSA recovered from the assay after 4 hours; read-out: Recovery (PPB assay)
Provide the reported recovery at 4 h, 2 µM of each item.
Answers are plain numbers, in %.

[[record]]
smiles_representation = "Cc1ccc2nc(-c3ccc(NC(=O)NCS(=O)(=O)O)cc3)sc2c1"
attribute_measured = "recovery at 4 h, 2 µM"
assay_value = 101


// batch mode: one recovery at 4 h, 2 µM value per listed entry
1. O=C(NCCCS(=O)(=O)O)Nc1ccc(C(F)(F)F)cc1
2. O=C(O)CNC(=O)Nc1ccc(C(F)(F)F)cc1
3. O=C(NCS(=O)(=O)O)Nc1ccc(C(F)(F)F)cc1
4. O=C(NCS(=O)(=O)O)Nc1ccccc1-c1nc2ccccc2s1
5. Cc1ccc2nc(-c3ccc(NC(=O)NCCCS(=O)(=O)O)cc3)sc2c1

[79, 86, 91, 109, 94]

---

Provide the reported EC50 of each item.
- Tested on: PE:PG mix nanodiscs
- measurement.protocol: Phospholipid nanodisc 1H NMR CPMG coordination assay, PE:PG mix nanodiscs
- Assay type: binding
- particulars: concentration of nanodisc coordinating 50 % of the SSA cation; SSA 100 µM; Hill Plot fit, Vmax fixed 100 %; read-out: EC50 PE:PG mix, cationic SSA component
- Excerpt: Finally, to establish how any single SSA structural variation affects the coordination of an individual salt component to the surface of a phospholipid membrane, the binding of the anionic and cationic components of SSAs 5–12 with nanodiscs comprised of PC, PG or the PE : PG mix (Table 2) was studied. Nanodiscs were synthesised from synthetic vesicles of the relevant phospholipid composition. For full synthetic procedures and nanodisc characterisation please see ESI (Section 13). ^†[34,35] […]
One number for each entry, in nM.

# annotated cases, reported EC50 shown
[[record]]
smiles_representation = "Cc1ccc2nc(-c3ccc(NC(=S)NCS(=O)(=O)O)cc3)sc2c1"
attribute_measured = "EC50"
assay_value = 370

[[record]]
smiles_representation = "Cc1ccc2nc(-c3ccc(NC(=O)NCCCS(=O)(=O)O)cc3)sc2c1"
attribute_measured = "EC50"
assay_value = 2920

[[record]]
smiles_representation = "O=C(NCS(=O)(=O)O)Nc1ccccc1-c1nc2ccccc2s1"
attribute_measured = "EC50"
assay_value = 930

[[record]]
smiles_representation = "Cc1ccc2nc(-c3ccc(NC(=O)NCC(=O)O)cc3)sc2c1"
attribute_measured = "EC50"
assay_value = 2510


Now for the compound whose EC50 we want.
Give me measured EC50, please, for this compound: "Cc1ccc2nc(NC(=O)NCS(=O)(=O)O)sc2c1"
3440

---

- measurement.protocol: Caco-2 permeability assay
- Format: in vitro ADME, human
- particulars: human, Caco-2, Caco-2; 10 uM; 120 minutes; n = 2 technical repeats; read-out: Papp (B-A)
attribute.measured: Papp B→A at 120 min, 10 µM (×10⁻⁶ cm/s)
One number for each entry, in ×10⁻⁶ cm/s.

# annotated cases, reported Papp B→A at 120 min, 10 µM shown
[[record]]
compound = "O=C(NCS(=O)(=O)O)Nc1ccccc1-c1nc2ccccc2s1 [SSA 5]"
assay_value = 21

[[record]]
compound = "O=C(NCCCS(=O)(=O)O)Nc1ccc(C(F)(F)F)cc1 [SSA 2]"
assay_value = 1.7

[[record]]
compound = "Cc1ccc2nc(-c3ccc(NC(=O)NCS(=O)(=O)O)cc3)sc2c1 [SSA 6]"
assay_value = 11


// batch mode: one Papp B→A at 120 min, 10 µM value per listed entry
1. Cc1ccc2nc(-c3ccc(NC(=O)NCCCS(=O)(=O)O)cc3)sc2c1 [SSA 10]
2. O=C(O)CNC(=O)Nc1ccc(C(F)(F)F)cc1 [SSA 4]
3. O=C(NCS(=O)(=O)O)Nc1ccc(C(F)(F)F)cc1 [SSA 1]

1. 6.7
2. 2.3
3. 5.4
